- target_under_test: T1, human factor XIIa (human, UniProt P00748 20-615, biotinylated with Biotin Ester (Zymed); sites not stated)
- T1 chain: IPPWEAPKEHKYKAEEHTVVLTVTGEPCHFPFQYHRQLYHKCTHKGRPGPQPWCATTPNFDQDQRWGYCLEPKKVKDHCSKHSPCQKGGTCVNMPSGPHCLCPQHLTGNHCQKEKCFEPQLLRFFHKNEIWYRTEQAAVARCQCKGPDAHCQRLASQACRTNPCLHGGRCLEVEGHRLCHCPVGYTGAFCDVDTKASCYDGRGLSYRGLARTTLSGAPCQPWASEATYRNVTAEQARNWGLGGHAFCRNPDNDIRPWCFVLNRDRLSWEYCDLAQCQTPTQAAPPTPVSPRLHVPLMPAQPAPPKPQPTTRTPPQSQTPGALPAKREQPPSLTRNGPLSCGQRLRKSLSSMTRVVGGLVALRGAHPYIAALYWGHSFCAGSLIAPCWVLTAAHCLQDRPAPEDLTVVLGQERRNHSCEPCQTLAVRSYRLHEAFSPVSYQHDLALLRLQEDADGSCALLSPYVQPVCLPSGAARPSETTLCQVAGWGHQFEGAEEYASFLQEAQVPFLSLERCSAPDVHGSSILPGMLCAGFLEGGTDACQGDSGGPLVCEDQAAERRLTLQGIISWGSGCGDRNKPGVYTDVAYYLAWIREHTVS
- assay_method_text: enzyme inhibition
property_label: pKi
Recall that pKi is obtained by taking minus log10 of the concentration measured in molar.

Some solved entries appear below for comparison.
| binder | pKi |
| --- | --- |
| TW6173 (protein) EVVREVCSEQAETGPCRAAHSRWYFDVTEGKCAPFFYGGCGGNRNNFDTEEYCMAVCGSAI | 5.84 |
| TW6161 (protein) EVVREVCSEQAETGPCRAMISRWYFDVTEGKCAPFFYGGCYGNRNNFDTEEYCMAVCGSAI | 5.82 |
| BG002 (protein) EVVREVCSEQAETGPCRALLSRWYFDVTEGKCAPFFYGGCGGNRNNFDTEEYCMAVCGSAI | 6.39 |

Req: Give the measured pKi of DD129 (protein) EVVREVCSEQAETGPCRALFSRWYFDVTEGKCAPFFYGGCGGNRNNFDTEEYCMAVCGSAI .
Resp: 5.73

Req: Do the same for TW6174 (protein) EVVREVCSEQAETGPCRALHSRWYFDVTEGKCAPFFYGGCGGNRNNFDTEEYCMAVCGSAI please
Resp: 5.55

Req: Can you check TW6153 (protein) EVVREVCSEQAETGPCRAMISRWYFDVTEGKCAPFFYGGCIGNRNNFDTEEYCMAVCGSAI next?
Resp: 7.19

Req: Request: DD101 (protein) EVVREVCSEQAETGPCRAMISRWYFDVTEGKCAPFFYGGCDGNRNNFDTEEYCMAVCGSAI
Resp: 6.03
